Taken from PubChem BioAssay (NCATS).

- System: MKL-1
- assay_procedure: qHTS assay to identify novel small-molecules to repurpose for Merkel cell carcinoma treatment (AID 1296009); note: nearly all actives have a fitted effect of over 60% in size
- measurement_parameters: MCC and control cell lines, CellTiter-Glo viability, 72 h; series mostly up to 46 µM
Inconclusive results are not listed. Calls of active or inactive are those of the source. Calls come from the whole dose curve; as a rule, active = well fitted inhibition curve with a large enough effect; inconclusive = small, poorly fitted or top-dose-only effect; inactive = flat fitted curve, though single readings scatter.
Outcomes: t for active, f for inactive

compound	discrete_label
Cc1cccc(Cc2cnc[nH]2)c1C	f
NC(=O)CN1CCCC1=O	f
C[C@@H]1C[C@@H]([C@H](O)CC2CC(=O)NC(=O)C2)C(=O)[C@@H](C)C1	t
CC(C)(C)OC(=O)c1ncn2c1[C@@H]1CCCN1C(=O)c1c(Br)cccc1-2	f
Cc1nc2ccccc2c(=O)n1-c1ccccc1Cl	f
CCCN(CCC)CCc1c[nH]c2ccccc12	f
CC(C(O)c1ccccc1)N(C)C/C=C/c1ccccc1 (configuration not stated)	f
C#C[C@]1(O)C=C[C@H]2[C@@H]3CCC4=CC(=O)CC[C@@H]4[C@H]3CC[C@@]21CC	f
CC#C[C@]1(O)CC[C@H]2[C@@H]3C[C@H](C)C4=CC(=O)CC[C@]4(C)[C@H]3CC[C@@]21C	f
CCCCCCCCC(=O)NCc1ccc(O)c(OC)c1	f
COc1cc(N)c(Cl)cc1C(=O)NC1CN2CCC1CC2 (configuration not stated)	f
NCc1cccnc1	f

====

- Tested on: 3D7
- assay_procedure: qHTS profiling for inhibitors of Plasmodium falciparum proliferation (AID 504749); note: nearly all actives have a fitted effect of over 60% in size
- measurement_parameters: P. falciparum in erythrocytes, SYBR Green DNA, 72 h; series mostly up to 28.7 µM
Records with an inconclusive call do not appear. Calls of active or inactive are those of the source. Calls come from the whole dose curve; as a rule, active = well fitted inhibition curve with a large enough effect; inconclusive = small, poorly fitted or top-dose-only effect; inactive = flat fitted curve, though single readings scatter.
Outcomes: y (active), n (inactive)

molecule	discrete_label
COCC(=O)N(c1c(C)cccc1C)C(C)C(=O)OC (stereo not drawn)	n
CC(C)C(Br)C(=O)NC(N)=O (stereo not drawn)	n
O=C(O)c1nn(Cc2ccc(Cl)cc2Cl)c2ccccc12	n
CCS(=O)(=O)C(C)(C)S(=O)(=O)CC	n
Nc1ccc(N)cc1	y
CN(C)C(=S)SSC(=S)N(C)C	y
CCNc1nc(Cl)nc(NCC)n1	n
COP(=O)(OC)C(O)C(Cl)(Cl)Cl (stereo not drawn)	n

====

- target_of_assay: Cytochrome P450 2D6 (Homo sapiens) (UniProt P10635)
- Sequence (P10635 whole entry, looked up): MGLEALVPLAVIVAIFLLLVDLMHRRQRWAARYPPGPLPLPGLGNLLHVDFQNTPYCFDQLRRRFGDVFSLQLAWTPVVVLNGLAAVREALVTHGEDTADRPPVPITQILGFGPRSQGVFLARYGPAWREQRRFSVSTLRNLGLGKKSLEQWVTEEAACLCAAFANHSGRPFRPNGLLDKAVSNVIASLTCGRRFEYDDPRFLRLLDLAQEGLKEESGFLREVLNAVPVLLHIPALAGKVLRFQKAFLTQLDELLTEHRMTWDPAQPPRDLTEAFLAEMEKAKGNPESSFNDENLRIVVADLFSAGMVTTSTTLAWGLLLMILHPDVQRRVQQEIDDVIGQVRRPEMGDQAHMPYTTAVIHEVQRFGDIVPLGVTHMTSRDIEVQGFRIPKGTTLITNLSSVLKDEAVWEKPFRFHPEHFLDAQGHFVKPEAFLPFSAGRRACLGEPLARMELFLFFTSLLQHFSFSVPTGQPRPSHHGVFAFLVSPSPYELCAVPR
- assay_procedure: Cytochrome P450 family 2 subfamily D member 6 (CYP2D6) small molecule antagonists: luciferase biochemical (cell-free) qHTS assay (AID 1645840); note: nearly all actives have a fitted effect of over 55% in size
- measurement_parameters: P450-Glo CYP2D6 enzyme, luciferin luminescence, 1 h; series mostly up to 57.4 µM
- Source text: National Center for Advancing Translational Sciences [NCATS] Assay Overview: Cytochrome P450 (CYP) enzymes are membrane-bound hemeproteins that play a key role in metabolism of drugs and xenobiotics. Assaying the effect of chemicals on CYP isozymes is useful to minimize the adverse drug reactions and toxicities in drug development process. […] The luciferin products formed are detected with a luciferin detection reagent, and the amount of light produced is proportional to CYP activity. […]
Results filed as inconclusive are left out. Activity calls are given as the source filed them. Calls follow the shape of the dose curve; as a rule, active = well fitted inhibition curve with a large enough effect in the repeat runs; inconclusive = weak or mixed curves; inactive = flat fitted curve, though single readings scatter.
Outcomes: 1 = active, -1 = inactive

molecule	discrete_label
Oc1ccc([C@H]2CNCc3c2ccc(O)c3O)cc1O	-1
CC(C)=C[C@@H]1[C@@H](C(=O)OCc2coc(Cc3ccccc3)c2)C1(C)C	-1
CCOC(=O)C(c1c(O)c2ccccc2oc1=O)c1c(O)c2ccccc2oc1=O	-1
CC(Cc1ccc2c(c1)OCO2)NO (centres undefined)	1
CN(C)CCc1c[nH]c2cccc(O)c12	1
CNC(=O)NC(O)C(Cl)(Cl)Cl (centres undefined)	-1
Cc1nnc2n1-c1sc(CCC(=O)N3CCOCC3)cc1C(c1ccccc1Cl)=NC2	-1
C[C@]12CC[C@H]3[C@@H](CC=C4C[C@@H](O)CC[C@@]43C)[C@@H]1CC[C@@H]2O	-1
CN1[C@@H]2CC[C@H]1CC(OC(=O)c1cc(Cl)cc(Cl)c1)C2 (some centres undefined)	1
C[C@]12C=CC(=O)C=C1CC[C@@H]1[C@@H]2CC[C@@]2(C)[C@H]1CC[C@]2(C)O	-1
O=c1[nH]c2cc(Cl)ccc2n1C1CCNCC1	1
CC[n+]1c(-c2ccccc2)c2cc(N)ccc2c2ccc(N)cc21	1
CCC1(CC)C(=O)NC(=O)NC1=O	-1
CCOC(=O)c1cncn1C(C)c1ccccc1 (centres undefined)	-1
CCO[C@H]1O[C@@H]2OC3(C)CC[C@H]4[C@H](C)CC[C@@H]([C@H]1C)[C@@]24OO3	-1
O=c1n(Cl)c(=O)n(Cl)c(=O)n1Cl	-1
CCC1(c2cccc(O)c2)CCCCN(C)C1 (centres undefined)	1
NC(=O)OCCCc1ccccc1	-1
CCN(CC)CCOC(=O)C(C)(c1ccccc1)c1ccccc1	1
COc1cc(N)c(Cl)cc1C(=O)NC1CN2CCC1CC2 (centres undefined)	1
C[C@]12Cc3nonc3C[C@@H]1CC[C@@H]1[C@@H]2CC[C@@]2(C)[C@H]1CC[C@]2(C)O	-1
COc1cc(CC#N)cc(OC)c1OC	-1
C[C@H]1C(=O)O[C@@H]2CCN3CC=C(COC(=O)[C@](C)(O)[C@]1(C)O)[C@H]23	-1
C[C@H]1CNCCc2ccc(Cl)cc21	1

====

Readings of Potency for the listed compounds
- assay_procedure: qHTS for differential inhibitors of proliferation of Plasmodium falciparum line W2 (AID 1883);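 note: potency is the fitted concentration of half-maximal effect; parasites grown with compound for 72 h before lysis and staining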
- measurement_parameters: Plasmodium falciparum W2 proliferation inhibition; series mostly up to 28.7 µM
Inconclusive results are not listed. The source made the active and inactive calls. Calls follow the shape of the dose curve; as a rule, active = well fitted curve in the direction sought with a large enough effect; inconclusive = small, poorly fitted or top-dose-only effect, or another doubt; inactive = no such curve, though single readings can be large or run the other way.

compound	Potency
COC(=O)C1=C(C)NC(C)=C(C(=O)OC)C1c1ccccc1[N+](=O)[O-]	12.6 µM (active)
c1ccc2nc(N3CCNCC3)ccc2c1	7.08 µM (active)
CC(N)C(=O)OC(C)(C)Cc1ccc(Cl)cc1 (centres undefined)	1.41 µM (active)

====

- Tested on: PC26
- assay_procedure: qHTS profiling for inhibitors of Plasmodium falciparum proliferation (AID 504749); note: nearly all actives have a fitted effect of over 60% in size
- measurement_parameters: P. falciparum in erythrocytes, SYBR Green DNA, 72 h; series mostly up to 28.7 µM
Records with an inconclusive call do not appear. The source made the active and inactive calls. Calls follow the shape of the dose curve; as a rule, active = well fitted inhibition curve with a large enough effect; inconclusive = small, poorly fitted or top-dose-only effect; inactive = flat fitted curve, though single readings scatter.
Outcomes: active, inactive

molecule	discrete_label
CN1C[C@@H](NS(=O)(=O)N(C)C)C[C@@H]2c3cccc4c3c(cn4C)C[C@H]21	inactive
CN(C)C(=S)SSC(=S)N(C)C	active
c1ccc2nc(N3CCNCC3)ccc2c1	inactive
CC(C)[N+](C)(CCC(C(N)=O)(c1ccccc1)c1ccccc1)C(C)C	inactive
O=C(NC(=O)c1c(F)cccc1F)Nc1cc(Cl)c(OC(F)(F)C(F)C(F)(F)F)cc1Cl (stereo not drawn)	inactive
C[C@H]1C(=O)O[C@@H]2CCN3CC=C(COC(=O)[C@](C)(O)[C@]1(C)O)[C@H]23	inactive
OC(O)C(Cl)(Cl)Cl	inactive
C[C@]12CC[C@H]3[C@@H](CC=C4C[C@@H](O)CC[C@@]43C)[C@@H]1CC[C@@H]2O	inactive

====

- assay_procedure: qHTS for Inhibitors of the Functional Ribonucleoprotein Complex (vRNP) of Lymphocytic Choriomeningitis Arenaviruses (LCMV): Viability assay - alamar blue signal for LCMV Primary Screen (AID 1347085); note: nearly all actives have a fitted effect of over 80% in size
- measurement_parameters: alamar blue viability counter-screen, LCMV vRNP screen cells; series mostly up to 57.5 µM
Inconclusive results are not listed. Activity calls are given as the source filed them. The call rests on the fitted dose curve; tested in HEK293 reporter line.

compound_string	outcome
C#C[C@]1(O)C=C[C@H]2[C@@H]3CCC4=CC(=O)CC[C@@H]4[C@H]3CC[C@@]21CC	inactive
Cc1nc2ccccc2c(=O)n1-c1ccccc1Cl	inactive
Cc1ccc(S(=O)(=O)NC(=O)NC2CCCC2)cc1	inactive
c1ccc(CN(CC2=NCCN2)c2ccccc2)cc1	inactive
Cc1cccc(Nc2cc(Cl)nc(SCC(=O)O)n2)c1C	inactive
NCC(=O)O	inactive

====

- measurement_parameters: Ebola virus entry assay, blue channel fluorescence
Calls of active or inactive are those of the source. How the calls were made is not given here.
Outcomes: active, inactive

molecule	discrete_label
O=C(O)c1nn(Cc2ccc(Cl)cc2Cl)c2ccccc12	inactive
CC(=O)NC(Cc1ccccc1)C(=O)O (stereo unspecified)	inactive
Cc1cccc(Cc2cnc[nH]2)c1C	inactive
O=C1OC(OC(=O)c2cccnc2Nc2cccc(C(F)(F)F)c2)c2ccccc21 (stereo unspecified)	inactive
C[C@H](O)C(=O)Nc1c(I)c(C(=O)NC(CO)CO)c(I)c(C(=O)NC(CO)CO)c1I	inactive
C[C@@H]1CCC[C@H](C)N1CCCC(O)(c1ccccc1)c1ccccn1 (stereo partly specified)	active

====

- measurement_parameters: Ebola virus entry assay, ratio channel
The source made the active and inactive calls. How the calls were made is not given here.
Outcomes: true for active, false for inactive

compound	discrete_label
C=CCc1ccccc1OCC(O)CNC(C)C (stereo not drawn)	true
CN(C)C(=S)SSC(=S)N(C)C	true
CCN(CC)CCOCCOC(=O)C1(c2ccccc2)CCCC1	true
C#CC1(O)CC[C@H]2[C@@H]3CCC4=CCCC[C@@H]4[C@H]3CC[C@@]21C (stereo partly drawn)	true
COC(=O)C1=C(C)NC(C)=C(C(=O)OC)C1c1ccccc1[N+](=O)[O-]	false
CC1=C(C(=O)OC(C)C)C(c2cccc([N+](=O)[O-])c2)C(C(=O)OC2CN(C(c3ccccc3)c3ccccc3)C2)=C(N)N1 (stereo not drawn)	true
O=C(O)/C=C/c1ccc(Cn2ccnc2)cc1	false
C[C@@H](C1=C(CCN(C)C)Cc2ccccc21)c1ccccn1	true
Cc1cn([C@H]2C[C@H](F)[C@@H](CO)O2)c(=O)[nH]c1=O	false
Nc1c2ccccc2nc2ccccc12	false
Oc1ccc(Cl)cc1Cc1cc(Cl)ccc1O	true
CCN(CC)CCOC(=O)C(c1ccccc1)c1ccccc1	false
CCCn1cnc2c1c(=O)n(CCCCC(C)=O)c(=O)n2C	false
CCCCCN(CCCCC)C(=O)C(CCC(=O)O)NC(=O)c1ccc(Cl)c(Cl)c1 (stereo not drawn)	false
C[C@]12C=CC(=O)C=C1CC[C@H]1[C@@H]3C[C@@H](O)[C@](O)(C(=O)CO)[C@@]3(C)C[C@H](O)[C@@]12F	false
CC(C)(C)c1ccc(C(=O)CCCCl)cc1	false
CCN(CC)CCN	false
CCCCCC(=O)O[C@]1(C(C)=O)CC[C@H]2[C@@H]3CCC4=CC(=O)CC[C@]4(C)[C@H]3CC[C@@]21C	false
c1ccc(CCNc2nc(-c3ccccc3)cs2)cc1	false
CN1CCCCC1CCN1c2ccccc2Sc2ccc(S(C)=O)cc21 (stereo not drawn)	true
Cc1ncc(CSSCc2cnc(C)c(O)c2CO)c(CO)c1O	false
Nc1ccn([C@H]2CC[C@@H](CO)O2)c(=O)n1	false
CN1CCN(C2Cc3ccccc3Sc3ccc(Cl)cc32)CC1 (stereo not drawn)	true
